- System: UACC-257 melanoma
- ASSAY PROCEDURE: NCI-60 one-dose screen, 48 h (100 = growth as untreated, 0 = no growth, -100 = all killed)
- TEST PARAMETERS: 10 µM unless noted
Compounds without any hit were thinned out: in the full panel of roughly 83,000, 20% have a hit. The source made the active and inactive calls. How the source made its calls: active means growth percent below 10; inactive means the rest.

COMPOUND	growth
COc1ccccc1NC(=O)N=Nc1c(O)[nH]c2ccccc12	89% (inactive)
C#CCOc1cccc(Nc2ncnc3ccc(NC(=O)C=C)cc23)c1	54.9% (inactive)
CCOC(=O)c1c(NC(=O)c2cccc(C(F)(F)F)c2)sc2c(CN(C)C)c(O)ccc12	-10.5% (active)
CC(=O)O[C@H]1CC2CCC3C(CC[C@@]4(C)C3C[C@H]([N+]3(C)CCCCC3)[C@@H]4OC(C)=O)[C@@]2(C)C[C@@H]1N1CCCCC1 (some centres undefined)	98% (inactive)
O=C1c2ccccc2-c2c1c1c(=O)[nH]c3ccccc3c1n2Cc1ccccc1	74.9% (inactive)
N#Cc1c(-c2ccccc2)[nH]c2ncc(-c3ccccc3)n2c1=O	94% (inactive)
COc1cc(NS(=O)(=O)c2ccc(-c3cnc(C4CC4)o3)cc2)ccc1F	69% (inactive)
COc1ccc(/C=C/C(=O)c2ccc(Nc3ccnc4cc(Cl)ccc34)cc2)cc1	102% (inactive)
O=C(NNC(=O)c1ccc(NC(=O)c2ccccn2)cc1)Nc1ccc([N+](=O)[O-])cc1	106% (inactive)
COc1cc2c(cc1OC)C(C)N(S(N)(=O)=O)CC2 (centres undefined)	100% (inactive)
Cn1ccnc1C(=O)/C=C/c1ccc(CC(=O)Nc2cc(C(F)(F)F)cc(C(F)(F)F)c2)cc1	72.8% (inactive)
Cc1ccc(CNc2ccc3nc(CCC4CCCCC4)[nH]c3c2)cc1	66.8% (inactive)
Nc1n[nH]c2ccc([C@H]3[C@@H]4C5CCC(C5)[C@@H]4c4c(ccc5[nH]ncc45)N3S(=O)(=O)C3CC3)cc12 (some centres undefined)	63.8% (inactive)
CCC(C)(C)C(=O)O[C@H]1C[C@@H](C)C=C2C=C[C@H](C)[C@H](CC[C@@H]3CC(SCCN)CC(=O)O3)[C@H]21 (some centres undefined)	78% (inactive)
Nc1c(C(=O)Nc2ccccc2C(F)(F)F)sc2nc3c(cc12)CCC3	101% (inactive)
O=S(=O)(Nc1ccc(F)cc1F)c1ccc(-c2cnc(C3CC3)o2)cc1	64% (inactive)
C1CN(SSN2CCOCC2)CCO1	49.6% [100 µM] (inactive)
COc1cc2ncnc(Nc3ccc(S(=O)(=O)Nc4cc(C)on4)cc3)c2cc1OCCCN1CCN(c2ccc(F)cc2)CC1	106% (inactive)
COc1cc2oc(-c3cccc(NC(=O)c4ccccc4)c3)cc(=O)c2c(OC)c1OC	99.7% (inactive)
Nc1nc(-c2ccc(Cl)cc2)nc2c1sc(=S)n2-c1ccccc1	59.9% (inactive)
O=[N+]([O-])c1cccc(-c2nc3cc4nc5ccccc5[nH]c4cc3n2)c1	98.3% (inactive)
CCOc1ccccc1Cn1ccnc1CCc1c(Cl)c(O)cc(O)c1C(=O)OC	93.7% (inactive)
Clc1ccc2c(NC3CCC(N4CCOCC4)CC3)ccnc2c1 (centres undefined)	56.6% (inactive)
CCN1C(=S)N(c2ccccc2)C2NC(=S)N(/N=C/C=C/c3ccccc3OC)C21 (centres undefined)	43.2% (inactive)
Clc1cc(Cl)c(Cl)c(-c2nnc(SCc3ccncc3Br)o2)c1	103% (inactive)
O=C(O)c1ccc(-n2cc(/C=N/Nc3ccccc3)c(-c3ccc(F)cc3F)n2)cc1	114% (inactive)
CCOC(=O)c1ccc2c(c1)nc(-c1ccccc1)n2C1CCCCC1	78.2% (inactive)
C=C(C)[C@@H]1CCC[C@]2(COS(=O)(=O)c3ccc(C)cc3)CC[C@]3(C)[C@@H](CC[C@@H]4[C@@]5(C)CCCNC(C)(C)[C@@H]5CC[C@]43C)[C@@H]12	58.5% (inactive)
COC1=CC(c2ccc[nH]2)=N/C1=C\c1[nH]c(C)c(C)c1CCC(=O)OCc1ccccc1	-49% (active)
Cc1cc(N2CCN(CCNc3ccnc4cc(Cl)ccc34)CC2)nc(N2CCOCC2)n1	54% (inactive)
COc1cc(-c2cncn2-c2ccc(-c3nc4ccc(F)cc4s3)cc2)ccc1F	79.7% (inactive)
COc1ccc(C(=O)Nc2cccc(-c3cc(=O)c4c(OC)c(OC)c(OC)cc4o3)c2)cc1	105% (inactive)
CCN(CC)CC(O)COc1c(Br)c(Br)c(Br)c2c1OC(C)(C)C2 (centres undefined)	140% (inactive)
Cn1cc(-c2nonc2-c2cn(C)c3ccccc23)c2ccccc21	65.7% (inactive)
Cc1ccc(NC(=O)c2sc3nc(C)c(Br)c(C)c3c2N)cc1	90.3% (inactive)
Fc1cnccc1C1CC(c2ccc(N3CCNCC3)cc2)=NN1 (centres undefined)	83.1% (inactive)
C=CC(=O)N1CCN(c2cccc(Oc3nccc(Nc4nnc(-c5ccc(Br)cc5)s4)n3)c2)CC1	80.6% (inactive)
O=C(Nc1cccc(-c2ccc(Cl)c(C(F)(F)F)c2)c1)C1CCN(Cc2cccc3cccnc23)CC1	19.8% (inactive)
COc1ccc(/C=C(\C#N)n2nnc3cc(F)c(F)cc32)cc1	81.9% (inactive)
